Tested on: Candida albicans
EXPERIMENT_DESCRIPTION: Antifungal activity against 10^3 cells/ml Candida albicans ATCC 90028 by NCCLS method
Assay type: functional
Provide the recorded MIC for the entries that follow.
Use mg/L as the unit, but write only the number.

Checklist item: MIC tested on Candida albicans, entry Nc1nc(=O)[nH]cc1F , value? 0.8

Checklist item: MIC tested on Candida albicans, entry C[C@@H]1[C@H](O)[C@@H](C)/C=C/C=C/C=C/C=C/C=C/C=C/C=C/[C@H](O[C@@H]2O[C@H](C)[C@@H](O)[C@H](N)[C@@H]2O)C[C@@H]2O[C@](O)(C[C@@H](O)C[C@@H](O)[C@H](O)CC[C@@H](O)C[C@@H](O)CC(=O)O[C@H]1C)C[C@H](O)[C@H]2C(=O)O , value? 0.23

Checklist item: MIC tested on Candida albicans, entry CC[C@H](C)C[C@H](C)CCCCCCCCC(=O)N[C@H]1C[C@@H](O)[C@@H](NCCN)NC(=O)[C@@H]2[C@@H](O)CCN2C(=O)[C@H]([C@H](O)CCN)NC(=O)[C@H]([C@H](O)[C@@H](O)c2ccc(O)cc2)NC(=O)[C@@H]2C[C@@H](O)CN2C(=O)[C@H]([C@@H](C)O)NC1=O , value? 0.2

Checklist item: MIC tested on Candida albicans, entry CC(=O)N1CCN(c2ccc(OCC3COC(Cn4ccnc4)(c4ccc(Cl)cc4Cl)O3)cc2)CC1 (centres undefined) , value? 0.125

====

Test system: Candida albicans
EXPERIMENT_DESCRIPTION: Antifungal activity against 10^8 cells/ml wild-type Candida albicans BF-1 planktonic cells by XTT reduction assay
Format: functional
Provide the recorded MIC for the entries that follow.

GET /values?readout=MIC&item= CC(=O)N1CCN(c2ccc(OCC3COC(Cn4ccnc4)(c4ccc(Cl)cc4Cl)O3)cc2)CC1 (centres undefined) [KETOCONAZOLE] > 64 µg/mL

GET /values?readout=MIC&item= Nc1nc(=O)[nH]cc1F [FLUCYTOSINE] > 420 µg/mL

GET /values?readout=MIC&item= CC[C@H](C)C[C@H](C)CCCCCCCCC(=O)N[C@H]1C[C@@H](O)[C@@H](NCCN)NC(=O)[C@@H]2[C@@H](O)CCN2C(=O)[C@H]([C@H](O)CCN)NC(=O)[C@H]([C@H](O)[C@@H](O)c2ccc(O)cc2)NC(=O)[C@@H]2C[C@@H](O)CN2C(=O)[C@H]([C@@H](C)O)NC1=O [CASPOFUNGIN] 0.4 µg/mL

GET /values?readout=MIC&item= C[C@@H]1[C@H](O)[C@@H](C)/C=C/C=C/C=C/C=C/C=C/C=C/C=C/[C@H](O[C@@H]2O[C@H](C)[C@@H](O)[C@H](N)[C@@H]2O)C[C@@H]2O[C@](O)(C[C@@H](O)C[C@@H](O)[C@H](O)CC[C@@H](O)C[C@@H](O)CC(=O)O[C@H]1C)C[C@H](O)[C@H]2C(=O)O [AMPHOTERICIN B] 0.93 µg/mL

====

Tested on: Candida albicans
EXPERIMENT_DESCRIPTION: Antifungal activity against 10^3 cells/ml wild-type Candida albicans BF-1 by NCCLS method
Type: functional
Provide the recorded MIC for the entries that follow.
Include the unit after the number when you answer.

GET /values?readout=MIC&item= CC(=O)N1CCN(c2ccc(OCC3COC(Cn4ccnc4)(c4ccc(Cl)cc4Cl)O3)cc2)CC1 (centres undefined) 0.125 µg/mL

GET /values?readout=MIC&item= C[C@@H]1[C@H](O)[C@@H](C)/C=C/C=C/C=C/C=C/C=C/C=C/C=C/[C@H](O[C@@H]2O[C@H](C)[C@@H](O)[C@H](N)[C@@H]2O)C[C@@H]2O[C@](O)(C[C@@H](O)C[C@@H](O)[C@H](O)CC[C@@H](O)C[C@@H](O)CC(=O)O[C@H]1C)C[C@H](O)[C@H]2C(=O)O 0.23 µg/mL

GET /values?readout=MIC&item= Nc1nc(=O)[nH]cc1F 0.8 µg/mL

GET /values?readout=MIC&item= CC[C@H](C)C[C@H](C)CCCCCCCCC(=O)N[C@H]1C[C@@H](O)[C@@H](NCCN)NC(=O)[C@@H]2[C@@H](O)CCN2C(=O)[C@H]([C@H](O)CCN)NC(=O)[C@H]([C@H](O)[C@@H](O)c2ccc(O)cc2)NC(=O)[C@@H]2C[C@@H](O)CN2C(=O)[C@H]([C@@H](C)O)NC1=O 0.2 µg/mL

====

System: Candida albicans
EXPERIMENT_DESCRIPTION: Antifungal activity against 24 hrs cultures of 10^7 cells/ml wild-type Candida albicans BF-1 biofilms by XTT reduction assay
Format: functional
MEASUREMENT_CONTEXT: BF-1, 24 h
Provide the recorded MIC for the entries that follow.

GET /values?readout=MIC&item= C[C@@H]1[C@H](O)[C@@H](C)/C=C/C=C/C=C/C=C/C=C/C=C/C=C/[C@H](O[C@@H]2O[C@H](C)[C@@H](O)[C@H](N)[C@@H]2O)C[C@@H]2O[C@](O)(C[C@@H](O)C[C@@H](O)[C@H](O)CC[C@@H](O)C[C@@H](O)CC(=O)O[C@H]1C)C[C@H](O)[C@H]2C(=O)O [AMPHOTERICIN B] 30 µg/mL

GET /values?readout=MIC&item= CC(=O)N1CCN(c2ccc(OCC3COC(Cn4ccnc4)(c4ccc(Cl)cc4Cl)O3)cc2)CC1 (centres undefined) [KETOCONAZOLE] > 64 µg/mL

GET /values?readout=MIC&item= Nc1nc(=O)[nH]cc1F [FLUCYTOSINE] > 420 µg/mL

GET /values?readout=MIC&item= CC[C@H](C)C[C@H](C)CCCCCCCCC(=O)N[C@H]1C[C@@H](O)[C@@H](NCCN)NC(=O)[C@@H]2[C@@H](O)CCN2C(=O)[C@H]([C@H](O)CCN)NC(=O)[C@H]([C@H](O)[C@@H](O)c2ccc(O)cc2)NC(=O)[C@@H]2C[C@@H](O)CN2C(=O)[C@H]([C@@H](C)O)NC1=O [CASPOFUNGIN] > 100 µg/mL

====

Provide the recorded MIC for the entries that follow.
System: Candida albicans
EXPERIMENT_DESCRIPTION: Antifungal activity against 24 hrs cultures of 10^7 cells/ml Candida albicans SC5314 biofilms by XTT reduction assay
Format: functional
MEASUREMENT_CONTEXT: SC5314, 24 h

GET /values?readout=MIC&item= CC[C@H](C)C[C@H](C)CCCCCCCCC(=O)N[C@H]1C[C@@H](O)[C@@H](NCCN)NC(=O)[C@@H]2[C@@H](O)CCN2C(=O)[C@H]([C@H](O)CCN)NC(=O)[C@H]([C@H](O)[C@@H](O)c2ccc(O)cc2)NC(=O)[C@@H]2C[C@@H](O)CN2C(=O)[C@H]([C@@H](C)O)NC1=O > 100 µg/mL

GET /values?readout=MIC&item= Nc1nc(=O)[nH]cc1F > 420 µg/mL

GET /values?readout=MIC&item= C[C@@H]1[C@H](O)[C@@H](C)/C=C/C=C/C=C/C=C/C=C/C=C/C=C/[C@H](O[C@@H]2O[C@H](C)[C@@H](O)[C@H](N)[C@@H]2O)C[C@@H]2O[C@](O)(C[C@@H](O)C[C@@H](O)[C@H](O)CC[C@@H](O)C[C@@H](O)CC(=O)O[C@H]1C)C[C@H](O)[C@H]2C(=O)O 32 µg/mL

GET /values?readout=MIC&item= CC(=O)N1CCN(c2ccc(OCC3COC(Cn4ccnc4)(c4ccc(Cl)cc4Cl)O3)cc2)CC1 (centres undefined) > 64 µg/mL
